Source listed as PubChem BioAssay (NCI).

System: DU-145 prostate
Assay: NCI tumour cell line growth inhibition, 48 h; in the data active means GI50 below about 0.43 µM; inactive means the rest
Lab note: assign the record to one of yes (active), no (inactive)

These recorded examples may help you get a feel for the data.
[[record]]
molecule = "COc1ccc(S(=O)(=O)N2CCN(C(=O)OCc3ccccc3)CC2C(=O)NO)cc1 (stereo unspecified)"
cat = "no"

[[record]]
molecule = "O=C(c1ccccc1)c1ccc(Cl)c([N+](=O)[O-])c1"
cat = "no"

[[record]]
molecule = "CN(CCCCCl)P(=O)(OCc1ccc([N+](=O)[O-])o1)C(F)(F)c1ccc(CC(=O)N[C@@H](CC(=O)O)C(=O)N[C@@H](Cc2ccc(C(F)(F)P(=O)(OCc3ccc([N+](=O)[O-])o3)N(C)CCCCCl)cc2)C(N)=O)cc1 (stereo partly specified)"
cat = "no"

[[record]]
molecule = "COc1ccccc1CNCCCN1C(=O)c2ccc3c4c(ccc(c24)C1=O)C(=O)N(CCCNCCCCNCCCCN)C3=O"
cat = "no"

[[record]]
molecule = "CN(C)c1ccc(/C=C(\\C#N)c2cc3ccccc3n2C)cc1"
cat = "no"

[[record]]
molecule = "CCOC(=O)c1ccc2c(c1)[n+](=O)c(C(=O)c1ccc3ccccc3c1)c(C(F)(F)F)n2[O-]"
cat = "no"

[[record]]
molecule = "COc1ccc2nc3cccc([N+](=O)[O-])c3c(NCCN(CCO)CCO)c2c1"
cat = "yes"

[[record]]
molecule = "C#CC[C@@H]1C[C@]2(C)[C@H]3CC[C@@H]4[C@H]5[C@H](C(=C)C)CC[C@]5(C(=O)O)CC[C@@]4(C)[C@]3(C)CC[C@H]2C(C)(C)[C@H]1O"
cat = "no"


In: Field: outcome | Entry: "C=C1C(=O)O[C@H]2[C@H]1CC/C(COC(=O)/C=C\C(=O)NCc1ccc(Cn3c(=O)sn(-c4ccc(OC)cc4)c3=O)cc1)=C\CC[C@@]1(C)O[C@@H]21"
Out: no

In: Next molecule up: "O=C(N/N=C/c1coc2ccc(Cl)cc2c1=O)c1ccncc1"
Out: no

In: For "Nc1ccccc1/C=N\Nc1ccccc1" then?
Out: no

====

System: SK-MEL-2 melanoma
Assay: NCI tumour cell line growth inhibition, 48 h
measured_parameter: GI50

For each of the molecules below, state GI50.
1. CCCn1cc(C2=C(c3cn(C)c4ccccc34)C(=O)NC2=O)c2ccccc21
2. O=C(/C=C/C=C/c1ccccc1)c1ccc(Nc2nc(Nc3ccccc3)nc(Nc3ccccc3)n2)cc1
3. NC(=O)c1nnn(Cc2cc(Cl)c(C(=O)c3ccc(Cl)cc3)c(Cl)c2)c1N
4. CN(CCCCCl)P(=O)(OCc1ccc([N+](=O)[O-])o1)C(F)(F)c1ccc(CC(=O)N[C@@H](CC(=O)O)C(=O)N[C@@H](Cc2ccc(C(F)(F)P(=O)(OCc3ccc([N+](=O)[O-])o3)N(C)CCCCCl)cc2)C(N)=O)cc1 (some centres undefined)
5. COc1ccc2nc3cccc([N+](=O)[O-])c3c(NCCN(CCO)CCO)c2c1
6. CC1(C)CC[C@]2(C(=O)n3ccnc3)CC[C@]3(C)[C@H](C(=O)C=C4[C@@]5(C)C=C(C#N)C(=O)C(C)(C)[C@@H]5CC[C@]43C)[C@@H]2C1
7. CCCCCCCCCCCC1=NC(C)(C)CN1CCO

Out:
["0.702 µM", "> 100 µM", "> 9.09 µM", "21.6 µM", "0.0117 µM", "< 0.0336 µM", "8.15 µM"]

// for each molecule below, give its GI50
1. CCCCCCCCCCCCOC1C(CNC(=O)C2OC3OC(C)(C)OC3C2NC(=O)CN2CCN(c3ccccn3)CC2)OC2OC(C)(C)OC21 (centres undefined)
2. COc1ccc(/C=C2\N=C(c3ccccc3)N(c3cc(C(F)(F)F)ccc3Cl)C2=O)cc1OC

Out:
1. 1.65 µM
2. 31.9 µM
